B1: WW domain-containing transcription regulator protein 1, residues 116 to 162; numbered along this chain, Q9GZV5 (parent)
chain: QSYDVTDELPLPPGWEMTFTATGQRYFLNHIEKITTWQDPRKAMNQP

variants of: B1; assay: abundance fitness (aPCA) (normalised: wild type 0, dead -1); higher = more abundant; growth selection in yeast, the domain comes from the species named; settings: Homo sapiens
Catalogue of variants with associated abundance fitness
Lab note: jot the number down without any unit.

[
  {
    "variant.designation": "A21P",
    "abundance fitness": -0.088
  }
]

Problem: Which abundance fitness reading was recorded for the variant Q24M ?
Result: -0.489

Problem: Queued: M17I
Result: -0.09

Entry source: the Human Domainome abundance scans (Beltran et al. 2025)
